Assign inhibition at 10 µM to each entry below.
Biological target: PRKCB1 (PKC beta I) (Homo sapiens, UniProt P05771)
Sequence (P05771 whole entry, species assumed): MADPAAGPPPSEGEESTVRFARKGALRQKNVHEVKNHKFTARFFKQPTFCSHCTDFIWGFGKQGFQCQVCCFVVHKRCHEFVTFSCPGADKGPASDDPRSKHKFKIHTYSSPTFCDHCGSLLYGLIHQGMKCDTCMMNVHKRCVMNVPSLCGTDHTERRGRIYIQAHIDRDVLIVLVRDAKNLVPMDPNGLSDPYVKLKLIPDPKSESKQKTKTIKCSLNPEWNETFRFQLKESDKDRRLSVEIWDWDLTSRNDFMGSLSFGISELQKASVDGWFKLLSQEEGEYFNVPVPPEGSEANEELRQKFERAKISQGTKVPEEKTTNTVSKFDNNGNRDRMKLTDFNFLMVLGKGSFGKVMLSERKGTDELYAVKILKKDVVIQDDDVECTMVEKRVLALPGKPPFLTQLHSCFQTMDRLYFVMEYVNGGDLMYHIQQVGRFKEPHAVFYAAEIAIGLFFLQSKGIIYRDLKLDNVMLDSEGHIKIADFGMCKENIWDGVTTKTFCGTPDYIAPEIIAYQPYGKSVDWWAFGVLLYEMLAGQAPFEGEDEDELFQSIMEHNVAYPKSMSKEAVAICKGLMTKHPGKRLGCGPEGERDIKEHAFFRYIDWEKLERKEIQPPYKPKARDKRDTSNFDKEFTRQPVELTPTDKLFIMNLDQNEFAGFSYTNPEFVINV
Assay: FRET-based coupled-enzyme protein kinase inhibition assay
Format: biochemical
Details: compound at 10 µM, 1% DMSO
Please reply with the bare figure in % and do not write the unit itself.

query: Requested read-out: inhibition at 10 µM. Entry: Nc1ncnc2c1ncn2[C@@H]1O[C@H](COC(=O)N2CCN(C(=O)N3CCOCC3)CC2)[C@@H](O)[C@H]1O [Compound C89]
result: -6

query: Requested read-out: inhibition at 10 µM. Entry: Nc1ncnc2c1ncn2[C@@H]1O[C@H](COC(=O)NCCN2CCCC2=O)[C@@H](O)[C@H]1O [Compound C22]
result: -8

query: Requested read-out: inhibition at 10 µM. Entry: CC(C)N1CCC(NC(=O)OC[C@H]2O[C@@H](n3cnc4c(N)ncnc43)[C@H](O)[C@@H]2O)CC1 [Compound C19]
result: 4

query: Requested read-out: inhibition at 10 µM. Entry: Nc1ncnc2c1ncn2[C@@H]1O[C@H](COC(=O)NCCCc2nc3ccccc3[nH]2)[C@@H](O)[C@H]1O [Compound C1]
result: 6

query: Requested read-out: inhibition at 10 µM. Entry: CN1CCN(CCNC(=O)OC[C@H]2O[C@@H](n3cnc4c(N)ncnc43)[C@H](O)[C@@H]2O)CC1 [Compound C46]
result: 0

query: Requested read-out: inhibition at 10 µM. Entry: Nc1ncnc2c1ncn2[C@@H]1O[C@H](COC(=O)N[C@@H]2CCN(Cc3ccccc3)C2)[C@@H](O)[C@H]1O [Compound C10]
result: 5

query: Requested read-out: inhibition at 10 µM. Entry: Nc1ncnc2c1ncn2[C@@H]1O[C@H](COC(=O)N2CCC(Cc3ccc(F)cc3)C2)[C@@H](O)[C@H]1O (stereo partly shown) [Compound C66]
result: 1

###

Assign inhibition at 10 µM to each entry below.
Biological target: PHKG2 (Homo sapiens)
Sequence (P15735 1-406): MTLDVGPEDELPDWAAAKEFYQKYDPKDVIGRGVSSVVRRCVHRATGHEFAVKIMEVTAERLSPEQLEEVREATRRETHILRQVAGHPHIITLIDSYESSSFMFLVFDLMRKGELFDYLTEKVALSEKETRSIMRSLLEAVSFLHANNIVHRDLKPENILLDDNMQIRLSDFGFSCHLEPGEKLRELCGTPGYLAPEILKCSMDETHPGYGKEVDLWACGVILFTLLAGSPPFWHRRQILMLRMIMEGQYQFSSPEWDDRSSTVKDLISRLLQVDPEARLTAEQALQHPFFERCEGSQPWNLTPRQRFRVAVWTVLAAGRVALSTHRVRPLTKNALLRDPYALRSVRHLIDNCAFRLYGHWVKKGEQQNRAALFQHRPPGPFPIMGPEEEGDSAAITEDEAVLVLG
Assay: FRET-based coupled-enzyme protein kinase inhibition assay
Format: biochemical
Conditions: compound at 10 µM, 1% DMSO
Please reply with the bare figure in % and do not write the unit itself.

query: Requested read-out: inhibition at 10 µM. Entry: Nc1ncnc2c1ncn2[C@@H]1O[C@H](COC(=O)N2CCC(Cc3ccc(F)cc3)C2)[C@@H](O)[C@H]1O (stereo partly drawn) [Compound C66]
result: -2

query: Requested read-out: inhibition at 10 µM. Entry: CN(C)CCNC(=O)OC[C@H]1O[C@@H](n2cnc3c(N)ncnc32)[C@H](O)[C@@H]1O [Compound C85]
result: 1

query: Requested read-out: inhibition at 10 µM. Entry: Nc1ncnc2c1ncn2[C@@H]1O[C@H](COC(=O)N2CCC[C@H]2CO)[C@@H](O)[C@H]1O [Compound C9]
result: -4

query: Requested read-out: inhibition at 10 µM. Entry: Nc1ncnc2c1ncn2[C@@H]1O[C@H](COC(=O)N2CCN(Cc3ccccc3)CC2CO)[C@@H](O)[C@H]1O (stereo partly drawn) [Compound C13]
result: 0

query: Requested read-out: inhibition at 10 µM. Entry: Nc1ncnc2c1ncn2[C@@H]1O[C@H](COC(=O)N2CCS(=O)(=O)CC2)[C@@H](O)[C@H]1O [Compound C100]
result: 1

query: Requested read-out: inhibition at 10 µM. Entry: C[C@@H](NC(=O)OC[C@H]1O[C@@H](n2cnc3c(N)ncnc32)[C@H](O)[C@@H]1O)c1ccc(Cl)cc1 [Compound C4]
result: -2

query: Requested read-out: inhibition at 10 µM. Entry: Nc1ncnc2c1ncn2[C@@H]1O[C@H](COC(=O)NCCCc2nc3ccccc3[nH]2)[C@@H](O)[C@H]1O [Compound C1]
result: -3

query: Requested read-out: inhibition at 10 µM. Entry: Nc1ncnc2c1ncn2[C@@H]1O[C@H](COC(=O)N[C@@H]2CCN(Cc3ccccc3)C2)[C@@H](O)[C@H]1O [Compound C10]
result: 0

query: Requested read-out: inhibition at 10 µM. Entry: Nc1ncnc2c1ncn2[C@@H]1O[C@H](COC(=O)N2CCN(CCc3ccccc3)CC2)[C@@H](O)[C@H]1O [Compound C26]
result: -1

###

Assign inhibition at 10 µM to each entry below.
Biological target: UniProt:P08581
Sequence (P08581 25-1390): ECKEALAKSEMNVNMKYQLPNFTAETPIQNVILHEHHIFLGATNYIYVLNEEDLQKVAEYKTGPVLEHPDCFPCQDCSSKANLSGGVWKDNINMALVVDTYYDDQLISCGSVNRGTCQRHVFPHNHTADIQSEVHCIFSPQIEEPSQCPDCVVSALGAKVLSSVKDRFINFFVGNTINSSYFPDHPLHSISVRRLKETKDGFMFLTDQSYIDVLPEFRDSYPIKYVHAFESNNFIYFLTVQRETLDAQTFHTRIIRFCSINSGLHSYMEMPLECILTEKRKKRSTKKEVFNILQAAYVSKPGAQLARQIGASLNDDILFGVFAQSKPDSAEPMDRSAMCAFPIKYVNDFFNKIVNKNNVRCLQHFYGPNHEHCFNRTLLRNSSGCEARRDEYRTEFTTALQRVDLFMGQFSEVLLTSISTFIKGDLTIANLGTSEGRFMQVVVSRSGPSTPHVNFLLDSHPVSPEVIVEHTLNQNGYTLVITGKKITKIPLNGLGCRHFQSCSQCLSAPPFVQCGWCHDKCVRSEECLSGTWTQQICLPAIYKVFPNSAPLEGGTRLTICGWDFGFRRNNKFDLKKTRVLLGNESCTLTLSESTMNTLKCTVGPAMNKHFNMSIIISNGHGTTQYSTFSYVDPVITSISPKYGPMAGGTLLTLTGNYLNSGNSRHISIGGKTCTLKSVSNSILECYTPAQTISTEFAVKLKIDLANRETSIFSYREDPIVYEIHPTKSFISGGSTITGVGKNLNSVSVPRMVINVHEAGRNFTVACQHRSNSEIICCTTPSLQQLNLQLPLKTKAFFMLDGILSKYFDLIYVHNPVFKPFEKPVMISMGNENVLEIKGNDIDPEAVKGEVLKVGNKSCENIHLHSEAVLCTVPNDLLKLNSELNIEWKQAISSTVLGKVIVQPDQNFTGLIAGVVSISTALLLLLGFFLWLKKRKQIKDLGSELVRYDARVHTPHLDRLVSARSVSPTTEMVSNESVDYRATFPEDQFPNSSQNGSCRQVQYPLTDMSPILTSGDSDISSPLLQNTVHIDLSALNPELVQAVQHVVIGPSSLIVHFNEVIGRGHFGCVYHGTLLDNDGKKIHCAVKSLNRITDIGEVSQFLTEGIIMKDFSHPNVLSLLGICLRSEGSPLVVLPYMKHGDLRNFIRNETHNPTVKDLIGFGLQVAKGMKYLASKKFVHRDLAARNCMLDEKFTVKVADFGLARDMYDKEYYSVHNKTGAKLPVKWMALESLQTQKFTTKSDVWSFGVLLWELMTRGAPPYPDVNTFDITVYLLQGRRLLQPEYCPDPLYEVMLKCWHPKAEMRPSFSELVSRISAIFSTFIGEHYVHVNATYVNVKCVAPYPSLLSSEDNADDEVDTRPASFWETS
Assay: FRET-based coupled-enzyme protein kinase inhibition assay
Assay type: biochemical
Details: compound at 10 µM, 1% DMSO
Experimental: A biochemical assay was then performed in order to measure the protein kinase inhibition. It employed a fluorescence-based coupled-enzyme format and was based on the differential sensitivity of phosphorylated and non-phosphorylated peptides to proteolytic cleavage. […] A significant benefit of this ratiometric method for quantitating reaction progress is the elimination of well-to-well variations in FRET-peptide concentration and signal intensities. […]
Please reply with the bare figure in % and do not write the unit itself.

query: Requested read-out: inhibition at 10 µM. Entry: CN(C)CCNC(=O)OC[C@H]1O[C@@H](n2cnc3c(N)ncnc32)[C@H](O)[C@@H]1O
result: -12

query: Requested read-out: inhibition at 10 µM. Entry: CN1CCN(CCNC(=O)OC[C@H]2O[C@@H](n3cnc4c(N)ncnc43)[C@H](O)[C@@H]2O)CC1
result: 8

query: Requested read-out: inhibition at 10 µM. Entry: Nc1ncnc2c1ncn2[C@@H]1O[C@H](COC(=O)N2CCC[C@H]2CO)[C@@H](O)[C@H]1O
result: -11

query: Requested read-out: inhibition at 10 µM. Entry: C[C@@H](NC(=O)OC[C@H]1O[C@@H](n2cnc3c(N)ncnc32)[C@H](O)[C@@H]1O)c1ccc(Cl)cc1
result: 3

query: Requested read-out: inhibition at 10 µM. Entry: N#CCCN1CCN(C(=O)OC[C@H]2O[C@@H](n3cnc4c(N)ncnc43)[C@H](O)[C@@H]2O)CC1
result: -2

query: Requested read-out: inhibition at 10 µM. Entry: CS(=O)(=O)N1CC2(CCN(C(=O)OC[C@H]3O[C@@H](n4cnc5c(N)ncnc54)[C@H](O)[C@@H]3O)CC2)c2ccccc21
result: -12

query: Requested read-out: inhibition at 10 µM. Entry: Nc1ncnc2c1ncn2[C@@H]1O[C@H](COC(=O)NCCCc2nc3ccccc3[nH]2)[C@@H](O)[C@H]1O
result: 0

query: Requested read-out: inhibition at 10 µM. Entry: Nc1ncnc2c1ncn2[C@@H]1O[C@H](COC(=O)NC[C@H](O)CO)[C@@H](O)[C@H]1O
result: -16

query: Requested read-out: inhibition at 10 µM. Entry: Nc1ncnc2c1ncn2[C@@H]1O[C@H](COC(=O)N2CCN(CCc3ccccc3)CC2)[C@@H](O)[C@H]1O
result: -5

query: Requested read-out: inhibition at 10 µM. Entry: CC(C)N1CCC(NC(=O)OC[C@H]2O[C@@H](n3cnc4c(N)ncnc43)[C@H](O)[C@@H]2O)CC1
result: 2

query: Requested read-out: inhibition at 10 µM. Entry: Nc1ncnc2c1ncn2[C@@H]1O[C@H](COC(=O)N2CCC(Cc3ccc(F)cc3)C2)[C@@H](O)[C@H]1O (stereo partly shown)
result: -14

query: Requested read-out: inhibition at 10 µM. Entry: Nc1ncnc2c1ncn2[C@@H]1O[C@H](COC(=O)N2CCN(C(=O)N3CCOCC3)CC2)[C@@H](O)[C@H]1O
result: -4

query: Requested read-out: inhibition at 10 µM. Entry: Nc1ncnc2c1ncn2[C@@H]1O[C@H](COC(=O)NCCN2CCCC2=O)[C@@H](O)[C@H]1O
result: 1

query: Requested read-out: inhibition at 10 µM. Entry: Nc1ncnc2c1ncn2[C@@H]1O[C@H](COC(=O)N[C@@H]2CCN(Cc3ccccc3)C2)[C@@H](O)[C@H]1O
result: -1

query: Requested read-out: inhibition at 10 µM. Entry: Nc1ncnc2c1ncn2[C@@H]1O[C@H](COC(=O)N2CCN(Cc3ccccc3)CC2CO)[C@@H](O)[C@H]1O (stereo partly shown)
result: 0

query: Requested read-out: inhibition at 10 µM. Entry: Nc1ncnc2c1ncn2[C@@H]1O[C@H](COC(=O)N2CCS(=O)(=O)CC2)[C@@H](O)[C@H]1O
result: -3

Reference for the values: patent EP3212201B1
